molecular target: T1, human neonatal Fc receptor (hFcRn) (human, UniProt P55899 24-290; P61769 21-119); assay: phage ELISA pH 6;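 also: higher score means stronger binding and above about 3 to 5 exceeds background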
T1 construct: Biotinylated in the ELISA, Octet and yeast assays; also called human FcRn; huFcRn
T1 sequence (P55899 24-290 limits assumed, chain 1 of 2): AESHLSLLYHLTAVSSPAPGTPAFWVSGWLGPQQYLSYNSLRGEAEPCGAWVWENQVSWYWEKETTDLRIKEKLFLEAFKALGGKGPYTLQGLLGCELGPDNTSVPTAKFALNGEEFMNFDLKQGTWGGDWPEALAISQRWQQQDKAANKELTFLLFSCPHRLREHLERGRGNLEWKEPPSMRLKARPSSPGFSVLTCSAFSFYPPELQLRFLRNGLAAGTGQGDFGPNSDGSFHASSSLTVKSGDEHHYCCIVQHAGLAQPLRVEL
T1 sequence (P61769 21-119 limits assumed, chain 2 of 2): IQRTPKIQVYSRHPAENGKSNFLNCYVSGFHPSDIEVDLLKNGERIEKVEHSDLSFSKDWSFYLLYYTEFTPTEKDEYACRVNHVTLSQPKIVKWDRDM
Exercise: state measured ELISA score for each of the binders provided.
Numbers only.

[[record]]
binder = "L5 isolate with insertion SEQ ID NO: 464 (other) EPKSCDKTHTCPPCPAPELLGGPSVFLFPPKPKDTLMISRTPEVTCVVVDVSHEDPEVKFNWYVDGVEVHNAKTKPREEQYNSTYRVVSVLTVLHQDWLNGKEYKCKVSNKALPAPIEKTISKAKGQPREPQVYTLPPSRDELTKNQVSLTCLVKGFYPSDIAVEWESNGGCMMWKVNCGGGQPENNYKTTPPVLDSDGSFFLYSKLTVDKSRWQQGNVFSCSVMHEALHNHYTQKSLSLSPGK"
readout_type = "ELISA score"
value_measured = 46.2


Here are 2 binders. What values of ELISA score were reported for them?
1. L5 isolate with insertion SEQ ID NO: 411 (other) EPKSCDKTHTCPPCPAPELLGGPSVFLFPPKPKDTLMISRTPEVTCVVVDVSHEDPEVKFNWYVDGVEVHNAKTKPREEQYNSTYRVVSVLTVLHQDWLNGKEYKCKVSNKALPAPIEKTISKAKGQPREPQVYTLPPSRDELTKNQVSLTCLVKGFYPSDIAVEWESNGGCNMLWGSCGGGQPENNYKTTPPVLDSDGSFFLYSKLTVDKSRWQQGNVFSCSVMHEALHNHYTQKSLSLSPGK
2. L5 isolate with insertion SEQ ID NO: 422 (other) EPKSCDKTHTCPPCPAPELLGGPSVFLFPPKPKDTLMISRTPEVTCVVVDVSHEDPEVKFNWYVDGVEVHNAKTKPREEQYNSTYRVVSVLTVLHQDWLNGKEYKCKVSNKALPAPIEKTISKAKGQPREPQVYTLPPSRDELTKNQVSLTCLVKGFYPSDIAVEWESNGGCQHSPPLCGGGQPENNYKTTPPVLDSDGSFFLYSKLTVDKSRWQQGNVFSCSVMHEALHNHYTQKSLSLSPGK

Completion:
[68.6, 60.3]
